The reported numbers originate from patent US4033721A.

# test.protocol: Spectrophotometric determination of gentian violet residue in livers of chickens fed gentian violet (Examples 2 to 24)
# Assay type: in vivo
# experimental.parameters: chicken, liver, po, feed 7 ppm for 56 days, 4 hours after final dose, read-out: p.p.m. of Gentian Violet in liver
measured.quantity: concentration at 4 h (ng/g)

>  <compound>
CN(C)c1ccc(C(=C2C=CC(=[N+](C)C)C=C2)c2ccc(N(C)C)cc2)cc1 [gentian violet, hexamethylpararosaniline chloride]

>  <recorded.value>
240

$$$$
